B1: RNA-binding E3 ubiquitin-protein ligase MEX3C, residues 325 to 391; numbered along this chain, Q5U5Q3 (parent)
chain: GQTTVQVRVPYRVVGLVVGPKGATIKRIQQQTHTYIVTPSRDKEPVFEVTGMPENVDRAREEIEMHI

- Variants of: B1
- experiment_description: abundance fitness (aPCA) (normalised: wild type 0, dead -1); higher = more abundant; growth selection in yeast, the domain comes from the species named
- measurement_setup: Homo sapiens
For each of the variants below, state its abundance fitness.
Answers are plain numbers.

Worked examples, 3 variants total:
changes | abundance fitness
Y35T | 0.307
K43F | -0.431
P39R | -0.276

Would you mind giving abundance fitness for every variant in the list below?
1. I28M
2. F47W
3. A23V
4. T38H
5. K43R
6. T32Y
7. P53W
8. T34S

Reply:
1. -0.639
2. -0.412
3. -0.477
4. -0.587
5. -0.133
6. -0.777
7. -0.871
8. -0.802

Would you mind giving abundance fitness for every variant in the list below?
1. E54K
2. V37T
3. H33A
4. T32M
5. P20Q

Reply:
-0.519
0.136
-0.182
-0.653
-0.15

Would you mind giving abundance fitness for every variant in the list below?
1. I25E
2. K21L
3. E54Q
4. N55C
5. V49N

Reply:
1. -0.786
2. -0.183
3. -0.321
4. -0.544
5. -0.675

Would you mind giving abundance fitness for every variant in the list below?
1. S40Q
2. Q29A
3. G19Q
4. N55G
5. K43Q
6. K26R

Reply:
-0.033
0.106
-0.623
-0.281
-0.059
-0.126

Would you mind giving abundance fitness for every variant in the list below?
1. E44K
2. T32P
3. G22F
4. R27V
5. R41E

Reply:
1. -0.697
2. -0.654
3. -0.738
4. -0.577
5. -0.021

Would you mind giving abundance fitness for every variant in the list below?
1. P39V
2. V37S
3. E48W
4. I36N
5. S40I

Reply:
[-0.476, -0.027, -0.124, -0.21, -0.34]

Would you mind giving abundance fitness for every variant in the list below?
1. Y35A
2. N55L
3. V46N
4. M52G
5. I25R

Reply:
-0.044
-0.885
-0.62
-0.596
-0.39

Would you mind giving abundance fitness for every variant in the list below?
1. N55K
2. Q29W
3. E48Q
4. E44N
5. P20I
6. Q30P
7. A23L
8. H33M

Reply:
-0.647
-0.629
-0.204
-0.222
0.051
-0.899
-0.293
-0.213
